- measurement.notes: Example 9 pharmacokinetics assay for the PK and PD study Part I, II and III (plasma, tumor, liver)
- Type: in vivo, BALB/c nude mice
- test.context: mouse, plasma, po; 100 mg/kg, p.o., single dose; 12 h; ± SEM; read-out: Mean Concentration in Plasma
quantity: concentration at 12 h (ng/mL)
Numbers only; they are read as ng/mL.

Form field: reported concentration at 12 h of CC(C)(C)c1nc(-c2cccc(NS(=O)(=O)c3c(F)cccc3F)c2F)c(-c2ccnc(N)n2)s1 [Dabrafenib, dabrafenib, reference compound]
88.7

###

- test.system: BRAF V600E (Homo sapiens, UniProt P15056+Q96SW2, V600E)
- Construct: knock-in of the HiBiT tag to the endogenous BRAF V600E locus; host or cells: A375.10 (A375 clonal line, CRISPR HiBiT knock-in at the endogenous BRAF V600E locus)
- Sequence (P15056 whole entry V600E): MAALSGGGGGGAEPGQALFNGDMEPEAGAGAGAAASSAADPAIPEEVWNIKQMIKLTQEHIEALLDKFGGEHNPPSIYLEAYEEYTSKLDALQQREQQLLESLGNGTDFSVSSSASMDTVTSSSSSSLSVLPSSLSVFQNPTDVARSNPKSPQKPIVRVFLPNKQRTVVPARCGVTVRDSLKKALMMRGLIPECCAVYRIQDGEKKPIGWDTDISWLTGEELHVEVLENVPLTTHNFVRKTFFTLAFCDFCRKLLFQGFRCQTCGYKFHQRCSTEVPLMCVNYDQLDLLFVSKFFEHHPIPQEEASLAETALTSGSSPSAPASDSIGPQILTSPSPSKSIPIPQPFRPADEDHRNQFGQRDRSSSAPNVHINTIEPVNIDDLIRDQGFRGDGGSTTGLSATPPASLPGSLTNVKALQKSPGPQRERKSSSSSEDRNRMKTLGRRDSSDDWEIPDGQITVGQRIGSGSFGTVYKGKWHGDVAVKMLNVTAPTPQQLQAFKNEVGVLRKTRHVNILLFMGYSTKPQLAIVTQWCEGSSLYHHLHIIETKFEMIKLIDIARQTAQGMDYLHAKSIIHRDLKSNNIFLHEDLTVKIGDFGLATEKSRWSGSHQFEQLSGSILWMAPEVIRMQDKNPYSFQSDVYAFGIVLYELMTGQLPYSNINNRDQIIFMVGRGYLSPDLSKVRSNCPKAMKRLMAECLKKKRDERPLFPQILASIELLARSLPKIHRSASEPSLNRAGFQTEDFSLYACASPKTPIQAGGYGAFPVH
- Sequence (Q96SW2 whole entry): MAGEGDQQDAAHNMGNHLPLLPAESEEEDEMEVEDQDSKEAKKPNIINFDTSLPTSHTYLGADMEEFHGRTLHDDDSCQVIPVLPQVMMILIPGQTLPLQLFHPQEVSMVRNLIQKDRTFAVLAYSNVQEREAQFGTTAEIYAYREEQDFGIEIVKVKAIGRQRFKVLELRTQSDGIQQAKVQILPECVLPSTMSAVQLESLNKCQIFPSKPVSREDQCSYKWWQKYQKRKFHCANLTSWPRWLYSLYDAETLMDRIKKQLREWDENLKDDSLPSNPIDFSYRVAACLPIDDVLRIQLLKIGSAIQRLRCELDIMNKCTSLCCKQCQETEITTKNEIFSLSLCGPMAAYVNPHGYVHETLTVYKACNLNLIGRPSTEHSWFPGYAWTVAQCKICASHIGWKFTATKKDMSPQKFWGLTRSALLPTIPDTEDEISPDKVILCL
- Sequence (Q16531 whole entry partner): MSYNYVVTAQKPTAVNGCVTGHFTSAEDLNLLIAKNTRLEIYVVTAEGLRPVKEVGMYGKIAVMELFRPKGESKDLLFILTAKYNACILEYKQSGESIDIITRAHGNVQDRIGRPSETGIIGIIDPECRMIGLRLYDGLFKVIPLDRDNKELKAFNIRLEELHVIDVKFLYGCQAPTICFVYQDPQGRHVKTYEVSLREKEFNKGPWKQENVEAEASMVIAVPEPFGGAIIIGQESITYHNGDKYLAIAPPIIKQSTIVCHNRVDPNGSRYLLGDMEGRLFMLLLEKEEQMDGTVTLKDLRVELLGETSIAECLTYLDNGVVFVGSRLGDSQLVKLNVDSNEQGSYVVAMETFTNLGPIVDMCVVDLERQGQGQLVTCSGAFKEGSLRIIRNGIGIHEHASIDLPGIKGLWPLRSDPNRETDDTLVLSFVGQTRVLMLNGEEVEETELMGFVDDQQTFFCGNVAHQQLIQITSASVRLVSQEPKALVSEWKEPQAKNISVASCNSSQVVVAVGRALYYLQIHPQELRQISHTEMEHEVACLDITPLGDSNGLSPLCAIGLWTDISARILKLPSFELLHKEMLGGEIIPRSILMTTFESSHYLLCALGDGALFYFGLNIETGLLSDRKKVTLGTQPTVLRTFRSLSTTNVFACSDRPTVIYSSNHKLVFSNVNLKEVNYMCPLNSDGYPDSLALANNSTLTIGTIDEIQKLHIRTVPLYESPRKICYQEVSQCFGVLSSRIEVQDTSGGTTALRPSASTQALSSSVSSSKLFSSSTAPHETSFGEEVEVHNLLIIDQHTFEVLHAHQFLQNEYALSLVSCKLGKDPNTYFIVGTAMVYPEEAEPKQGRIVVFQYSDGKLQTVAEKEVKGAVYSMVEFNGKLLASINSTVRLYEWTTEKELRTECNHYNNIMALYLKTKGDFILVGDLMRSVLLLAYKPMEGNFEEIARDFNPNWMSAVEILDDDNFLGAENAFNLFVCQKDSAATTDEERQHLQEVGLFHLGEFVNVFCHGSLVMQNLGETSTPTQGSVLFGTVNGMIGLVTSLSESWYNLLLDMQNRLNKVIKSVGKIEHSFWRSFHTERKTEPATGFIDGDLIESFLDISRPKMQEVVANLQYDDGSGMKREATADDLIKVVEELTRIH
- measurement.notes: BRAF V600E HiBiT Degradation Assay
- Type: cell-based
- test.context: A375.10 cells, BRAF V600E, 2 hours; read-out: HiBiT-Degradation A375.10 BRAF 2 hours DC50
quantity: DC50

CCN(C)S(=O)(=O)Nc1ccc(F)c(Oc2ccc3ncc(OC4CC5(CCN(C6CCC(c7cc8c(cc7F)c(N7CCC(=O)NC7=O)nn8C)CC6)CC5)C4)nc3c2)c1C#N (single isomer, unassigned) [Compound 219] : < 1000 nM

Entry under review: CCN(C)S(=O)(=O)Nc1ccc(F)c(Oc2ccc3ncc(OCC4(O)CCN(C5CCC(c6cc7c(cc6F)c(N6CCC(=O)NC6=O)nn7C)CC5)CC4)nc3c2)c1C#N (single isomer, unassigned) [Compound 196] . Reported DC50?
< 1000 nM

What value of DC50 has been reported for the following molecule? CCN(C)S(=O)(=O)Nc1ccc(F)c(Oc2ccc3ncc(OCC4CCN(C5CCC(c6ccc(NC7CCC(=O)NC7=O)cc6F)CC5)CC4)nc3c2)c1C#N (single isomer, unassigned) [Compound 116]
1000 to 10000 nM

###

- measurement.notes: Pharmacokinetics after 21 days dosing in the efficacy study (plasma, tumor and brain concentrations; plasma AUC at steady state), Example 14
- Format: in vivo, female BALB/c nude mice
- test.context: mouse, plasma, po; 100 mg/kg p.o. QD x 21 days; 2 h; mean ± SEM
quantity: concentration at 2 h (ng/mL)
Entry rule: numbers only, all in ng/mL.

Looking for the measured concentration at 2 h of CC(C)(C)c1nc(-c2cccc(NS(=O)(=O)c3c(F)cccc3F)c2F)c(-c2ccnc(N)n2)s1 [Dabrafenib, dabrafenib, reference compound] , can you help?
444

###

- measurement.notes: Example 9 pharmacokinetics assay for the PK and PD study Part I, II and III (plasma, tumor, liver)
- Assay type: in vivo, BALB/c nude mice
- test.context: mouse, tumor, po; 10 mg/kg, p.o., single dose; 24 h; ± SEM; read-out: Mean Concentration in Tumor
quantity: concentration at 24 h (ng/g)
Report only the number, with the unit ng/g understood.

Use the examples below as a reference point.
CCN(C)S(=O)(=O)Nc1ccc(F)c(Oc2ccc3ncn(C4CC5(CCN(C6CC7(CCN(c8cc9c(cc8F)c(N8CCC(=O)NC8=O)nn9C)CC7)C6)CC5)C4)c(=O)c3c2)c1C#N (centres unmarked) : 383
CO[C@@H]1CCN(S(=O)(=O)Nc2ccc(F)c(Oc3ccc4ncn([C@H]5COC6(CCN(C7CC8(C7)CN(c7cc9c(cc7F)c(N7CCC(=O)NC7=O)nn9C)C8)CC6)C5)c(=O)c4c3)c2C#N)C1 : 183
CO[C@H]1CCN(S(=O)(=O)Nc2ccc(F)c(Oc3ccc4ncn([C@H]5COC6(CCN(C7CC8(C7)CN(c7cc9c(cc7F)c(N7CCC(=O)NC7=O)nn9C)C8)CC6)C5)c(=O)c4c3)c2C#N)C1 : 183
CCN(C)S(=O)(=O)Nc1ccc(F)c(Oc2ccc3ncc(OC4CC5(CCN(C6CCC(c7cc8c(cc7F)c(N7CCC(=O)NC7=O)nn8C)CC6)CC5)C4)nc3c2)c1C#N (single isomer, unassigned) : 13.4

Shifting focus to the compound that follows.
# concentration at 24 h lookup, item `Cn1nc(N2CCC(=O)NC2=O)c2cc(F)c(N3CC4(CC(N5CCC6(CC5)C[C@@H](n5cnc7ccc(Oc8c(F)ccc(NS(=O)(=O)N9CC[C@@H](F)C9)c8C#N)cc7c5=O)CO6)C4)C3)cc21`
41.7
